Cited source for all entries: PubChem BioAssay

# measurement_description: ovarian cancer cell viability with rucaparib, profiling panel, oncology-focused library, rucaparib conditional (AID 1508598)
# condition_parameters: patient-derived ovarian cancer cells, CellTiter-Glo viability, 144 h; at 0.0781 µM; OCI-P5x cells; with rucaparib 20 µM; stronger effect = lower value; 100% = cells with rucaparib alone
readout_name: viability (%)
Give just the numeric value; % need not be written.

{"columns": ["compound_string", "observed_measurement"],
 "data": [
  ["Cn1cc(C2=C(c3ccc(Cl)cc3Cl)C(=O)NC2=O)c2ccccc21", 106],
  ["O=C(c1ccc(OCCN2CCCCC2)cc1)c1c(-c2ccc(O)cc2)sc2cc(O)ccc12", 118],
  ["O=c1cc(N2CCOCC2)oc2c(-c3ccccc3)cccc12", 102]
]}

Read the next record carefully.
Please give the measured viability for this molecule: "O=C(O)c1ccc(-c2c[nH]c3ncc(-c4ccccc4)cc23)cc1C1CCCC1" 95.2

---

# measurement_description: differential killing of epithelial or mesenchymal cells, primary screen, imaging, PC-3E GFP, TEM4-18 mCherry, co-culture (AID 1345086);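 further: cells exposed to compound for 72 h before imaging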
# condition_parameters: imaging cell counts, measured here: mesenchymal TEM4-18 mCherry cell survival, at 1 µM
# normalised cell number >= 1 gives true, anything below gives false

Use these answered entries as a reference point.
{"columns": ["molecule", "qualitative_label"],
 "data": [
  ["O=C1C=CC(=O)c2c(O)c(Cl)c(Cl)c(O)c21", "true"],
  ["CC(=O)OCC1O[C@@H](OC(C)=O)C(NC(=O)OCc2ccccc2)[C@@H](OC(C)=O)C1OC(C)=O (stereo partly drawn)", "true"],
  ["CC(C)[C@H]1COC(=O)N1C(=O)CC(C)N1C(=S)OC[C@H]1c1ccccc1 (stereo partly drawn)", "true"],
  ["COc1cc([C@@H]2c3cc4c(cc3[C@H](O)C3COC(=O)[C@@H]32)OCO4)cc(OC)c1OC (stereo partly drawn)", "false"]
]}

In the following, a different molecule is considered.
Assess whether reported normalised cell number for "C=C[C@](C)(O)CC[C@@H]1[C@@]2(C)CCCC(C)(C)[C@@H]2CC[C@]1(C)O" sits at 1 or higher. true

---

inhibition reference
# measurement_description: growth inhibition of CRL1545 osteosarcoma cells, cell-based, cisplatin and BGB IC20 combos (AID 1671464);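 further: cells exposed to compound for 96 hours before readout; 0% = vehicle DMSO and 100% = high DMSO killing control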
# condition_parameters: measured here: with cisplatin IC20 combination, at 0.5 µM, stronger effect = higher value
Give your result in % as a bare value.

{"columns": ["compound", "inhibition / %"],
 "data": [
  ["NC(=O)c1ncn(C2OC(CO)C(O)C2O)n1 (configuration not stated)", -16.7],
  ["CC(C)N=c1cc2n(-c3ccc(Cl)cc3)c3ccccc3nc-2cc1Nc1ccc(Cl)cc1", -13.9],
  ["Cc1c(-c2cnccn2)ssc1=S", -65.5],
  ["O=C(Nc1ccncc1)c1cc([N+](=O)[O-])ccc1Cl", 14.6],
  ["O=c1cc(-c2cccc3c2Sc2ccccc2S3)oc(N2CCOCC2)c1", -48.2],
  ["O=c1ncccn1[C@@H]1O[C@H](CO)[C@@H](O)[C@H]1O", -35.4]
]}

Now turn to the next compound.
# input compound: "O=c1[nH]c(-c2ccc(C(F)(F)F)cc2)nc2c1CSCC2" ; wanted: its inhibition -44.5

---

# measurement_description: sensitizers of A549 cells to miR-34 induction, primary screen, imaging, A549 dox-inducible miR-34, nuclei and caspase counts (AID 1347080)
# condition_parameters: A549 miR-34 inducible, Hoechst nuclei count, 48 h; stronger effect = lower value; cell number ratio, induced over uninduced
readout_name: fold change
Write the value as a bare number.

Some entries whose results are on file:
{"columns": ["compound", "observed_measurement"],
 "data": [
  ["CCOC(=O)C(C)(N)Cc1ccc(O)c(O)c1 (stereo unspecified)", 0.926],
  ["Cc1ccc(/C=N/NC(=O)c2ccccc2Oc2ccccc2)o1", 0.862],
  ["C=C1CC[C@H](O)C/C1=C/C=C1\\CCC[C@]2(C)C([C@H](C)/C=C/[C@H](C)C(C)C)CC[C@@H]12 (stereo partly specified)", 0.922],
  ["CC(=O)NCCCCCCNC(C)=O", 0.955],
  ["Nc1nccc(-c2ccc3noc(-c4ccc(Cl)cc4)c3c2)n1", 0.777]
]}

Proceed to the following item.
// lookup fold change for CC[C@]1(O)CC2CN(CCc3c([nH]c4ccccc34)[C@@](C(=O)OC)(c3cc4c(cc3OC)N(C=O)[C@H]3[C@@](O)(C(=O)OC)[C@H](OC(C)=O)[C@]5(CC)C=CCN6CC[C@]43[C@@H]65)C2)C1 (stereo partly specified) 0.983
